Quick reference for bioavailability among some compounds
Assay: Bioavailability in iv dosed Beagle dog
Conditions: in vivo
All answers are understood in %, so give the number only.

compound	bioavailability, %
C[C@H](NP(=O)(CO[C@@H]1C=C(F)[C@H](n2cnc3c(N)ncnc32)O1)Oc1ccccc1)C(=O)OC1CCC1.Cl.Cl (some centres not stated)	18

Next:
## Task # bioavailability lookup, item C[C@H](NP(=O)(CO[C@@H]1C=C(F)[C@H](n2cnc3c(N)ncnc32)O1)Oc1ccccc1)C(=O)OC1CCC1 (stereo in doubt; 18r(A))
## Result 9.8

* * *

System: PBMC
Experiment: Metabolic stability in cathepsin A-overexpressing human PBMC assessed as compound degradation per ug of protein at 10 uM after 120 mins by scintillation counting
Conditions: 2 h, 30 µM
measured.parameter: Activity (pmol/min)
All answers are understood in pmol/min, so give the number only.

## Task # Activity lookup, item `CC(C)COC(=O)[C@H](C)NP(=O)(CO[C@@H]1C=C(F)[C@H](n2cnc3c(N)ncnc32)O1)N[C@@H](C)C(=O)OCC(C)C`
## Result 2.1

## Task # Activity lookup, item CCCCOC(=O)[C@H](CC)NP(=O)(CO[C@@H]1C=C(F)[C@H](n2cnc3c(N)ncnc32)O1)Oc1ccccc1 (some centres undefined)
## Result 1.4

## Task # Activity lookup, item CCCCSC(=O)[C@@H](Cc1ccccc1)NP(=O)(CO[C@@H]1C=C(F)[C@H](n2cnc3c(N)ncnc32)O1)Oc1ccccc1 (some centres undefined)
## Result 2.1

## Task # Activity lookup, item C[C@H](NP(=O)(CO[C@@H]1C=C(F)[C@H](n2cnc3c(N)ncnc32)O1)Oc1ccccc1)C(=O)OC1CCC1.Cl.Cl (some centres undefined)
## Result 19

# credit: ChEMBL document CHEMBL1157759
